Each recorded value in this set is attributed to patent US20220281819A1.

Biological target: TEAD3 (Homo sapiens, UniProt Q99594)
Sequence (Q99594 whole entry, species assumed): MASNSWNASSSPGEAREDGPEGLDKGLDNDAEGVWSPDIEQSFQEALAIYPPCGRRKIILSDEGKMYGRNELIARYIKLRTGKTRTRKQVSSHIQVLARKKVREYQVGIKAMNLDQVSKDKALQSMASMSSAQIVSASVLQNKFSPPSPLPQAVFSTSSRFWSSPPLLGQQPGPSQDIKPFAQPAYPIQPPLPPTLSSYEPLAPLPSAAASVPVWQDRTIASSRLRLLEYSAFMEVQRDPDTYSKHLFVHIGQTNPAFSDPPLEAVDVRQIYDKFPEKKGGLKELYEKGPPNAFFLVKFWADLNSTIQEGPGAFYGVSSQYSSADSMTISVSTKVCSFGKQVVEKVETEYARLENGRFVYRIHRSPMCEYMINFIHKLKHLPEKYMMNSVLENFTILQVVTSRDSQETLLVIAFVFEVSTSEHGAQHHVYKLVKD
Assay: Lipid HTRF (TR-FRET lipid pocket probe competition), 30 min pre-incubation, TEAD3
Format: binding
Conditions: His-tagged TEAD3, 30 minutes pre-incubation with compound at room temperature; read-out: Lipid HTRF TEAD3 IC50
experimental.readout: IC50 (nM)

>>> observed("C=CC(=O)Nc1cnc(OC)c(COC2CC3(CC3)C2)c1")
3600
>>> observed("CC(F)(F)c1ccc(-c2cc(NC(=O)[C@@H]3CO3)c(C#N)c3c2OCC3)cc1")
180
>>> observed("C=CC(=O)Nc1cnc(OC)c(/C=C/C2CCC(C(F)(F)F)OC2)c1 (single isomer, unassigned) [Enantiomer A from Example 42]")
8400
>>> observed("C=CC(=O)Nc1cnc(OC)c(-c2ccc(C(C)C)cc2)c1")
690

(I) C=CC(=O)Nc1cc(/C=C/C2CCC(F)(F)CC2)c(OC)cn1
(II) C=CC(=O)Nc1ccc(OC)c(/C=C/[C@H]2CC[C@H](C(F)(F)F)CC2)c1
Data request: Lower value of IC50 belongs to which: I or II ? State your choice using its label.
Data returned: I
(I: 130 nM, II: 450 nM)

====

Target: TEAD3 (Homo sapiens, UniProt Q99594)
Test: Lipid HTRF (TR-FRET lipid pocket probe competition), 30 min pre-incubation, TEAD3
Assay type: binding
Conditions: His-tagged TEAD3, 30 minutes pre-incubation with compound at room temperature; read-out: Lipid HTRF TEAD3 IC50
experimental.readout: IC50 (nM)

Known results for molecules:
>>> observed("C=CC(=O)Nc1cc(/C=C/[C@H]2CC[C@H](C(F)(F)F)CC2)c(OC)cn1")
210
>>> observed("C=CC(=O)Nc1cc2c(c(CO[C@H]3CC[C@H](C(F)(F)F)CC3)c1)OCC2")
31000

(1) C=CC(=O)Nc1cnc(OC)c(CO[C@H]2CC[C@H](C(F)(F)F)CC2)c1
(2) C=CC(=O)Nc1cc(/C=C/[C@H]2CC[C@H](C(F)(F)F)CC2)c(OC)nn1
(3) N#Cc1c(NC(=O)[C@@H]2CO2)cc(-c2ccc(OC(F)(F)F)cc2)c2c1CCO2
Data request: Rank items: key IC50, increasing. // respond by listing labels in the order requested
Data returned: 2, 3, 1
(2: 70 nM, 3: 110 nM, 1: 1300 nM)

(A) CC(C)c1ccc(-c2cc(NC(=O)[C@@H]3CO3)c(C#N)c3c2OCC3)cc1
(B) CC(F)(F)c1ccc(-c2cc(NC(=O)[C@H]3CO3)c(C#N)c3c2OCC3)cc1
(C) C=CC(=O)Nc1cnc2ccnc(O[C@H]3CC[C@H](C(F)(F)F)CC3)c2c1
Data request: Order the 3 molecules from highest to lowest IC50. Answer with the labels in sequence, matching the requested order.
Data returned: B, A, C
(B: 9100 nM, A: 140 nM, C: 70 nM)

(a) C=CC(=O)Nc1cc(/C=C/[C@H]2CC[C@H](C(F)(F)F)CC2)c(OC)nc1OC
(b) C=CC(=O)Nc1cc(/C=C/[C@H]2CC[C@H](C(F)(F)F)CC2)c(OC)nc1C(N)=O
Data request: Given the two records a and b , choose the one whose IC50 value is lower. Please reply using the label of the selected record.
Data returned: b
